test system: NCI-H522 lung; assay: NCI tumour cell line growth inhibition, 48 h
ASSAY_READOUT: TGI

compound=C[C@@]1(O)CCC[C@H]1n1c(=O)c(C(F)F)cc2cnc(NC3CCN(S(C)(=O)=O)CC3)nc21 subject_of_test="NCI-H522 lung" test_result="15.3 µM"
compound=CN[C@H]1CC[C@]23C[C@]24CC[C@]2(C)[C@@H]([C@H](C)N(C)C)CC[C@@]2(C)[C@@H]4CC[C@H]3C1(C)C subject_of_test="NCI-H522 lung" test_result="34.1 µM"
compound="COC(=O)C1SC[C@H]2C(=O)N(c3ccccc3)C(=O)N12 (stereo not given in full)" subject_of_test="NCI-H522 lung" test_result="> 100 µM"
compound=N[C@@H](Cc1ccc2oc3cc(=O)c4ccccc4c-3nc2c1)C(=O)O subject_of_test="NCI-H522 lung" test_result="> 100 µM"
compound=COc1ccc2c(c1)c(-c1ccc(-c3cn(C)c4ccc(OC)cc34)o1)cn2C subject_of_test="NCI-H522 lung" test_result="10 µM"
